I'd be grateful if you could share measured self-aminoacylation for these entries.
Test system: biotinyl-Leu-oxazolone
assay: self-aminoacylation, catalytic enhancement (BLO) (fold over background); higher = more active; k-Seq, kA / k0A0; sequences stand for … in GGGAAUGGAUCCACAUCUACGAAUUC…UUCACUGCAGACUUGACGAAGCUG
Variants at the floor of the assay were thinned out.
Give bare numbers.

residueCodes	self-aminoacylation
ACUACCCUGGUCCUCGAGUGA [Fam2.1 aminoacylation ribozyme variant]	3.84

Could I get self-aminoacylation for every one of these entries?
1. AUUACCCGGGUCAUCGAGUAA [Fam2.1 aminoacylation ribozyme variant]
2. CUACUUCAAACAAGCGGGCUG [Fam1A.1 aminoacylation ribozyme variant]
3. GCACACUUCAAGCAGUCGGUC [Fam1B.1 aminoacylation ribozyme variant]
4. UAGUUUGCUAGUAGUCGCAAG [Fam3.1 aminoacylation ribozyme variant]
5. AUCCACCUAGGUCAUCGGGAG [Fam2.2 aminoacylation ribozyme variant]
6. CUACUUCCAACAAUGGGUCUG [Fam1A.1 aminoacylation ribozyme variant]

[1.54, 1.38, 1.75, 1.1, 1.68, 0.795]

Could you report self-aminoacylation for every entry in the following list?
1. CUUACGCUGGUCAUCGAGUGA [Fam2.1 aminoacylation ribozyme variant]
2. AAGUCUGCUAAUAGUCGAAAG [Fam3.1 aminoacylation ribozyme variant]
3. CCACACCUCAAGCAAUCGGUU [Fam1B.1 aminoacylation ribozyme variant]
4. AUUCACCUAGGCCAUCGCGUG [Fam2.2 aminoacylation ribozyme variant]

[3.03, 1.52, 1.98, 6.31]

# per-item lookup of self-aminoacylation; items listed below
1. CAACUUCAAACAAUCGGACUG [Fam1A.1 aminoacylation ribozyme variant]
2. UUGCUUCAAACAAUCGGUCUG [Fam1A.1 aminoacylation ribozyme variant]

1. 1.41
2. 3.55

Provide self-aminoacylation for all items below, preserving their order.
1. AUUACCCCGGUCAUAGAGUGA [Fam2.1 aminoacylation ribozyme variant]
2. UUUCACCUAGGUCAUCGAGUG [Fam2.2 aminoacylation ribozyme variant]
3. AAUAACCUGGUCAUCGAGUGA [Fam2.1 aminoacylation ribozyme variant]
4. AUACUUCAAGCAAUCGGUCUG [Fam1A.1 aminoacylation ribozyme variant]
5. CCAUACUUCAAGCAAUUGGUC [Fam1B.1 aminoacylation ribozyme variant]

1. 8.34
2. 9.37
3. 5.79
4. 0.853
5. 0.667

###

System: biotinyl-Phe-oxazolone
assay: self-aminoacylation, catalytic enhancement (BFO) (fold over background); higher = more active; k-Seq, kA / k0A0; sequences stand for … in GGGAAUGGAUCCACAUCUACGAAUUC…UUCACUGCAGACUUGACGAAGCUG
Variants at the floor of the assay were thinned out.
observable: self-aminoacylation
Numbers only.

residueCodes	self-aminoacylation
CAACUUCUAACAAUCGGUCUG [Fam1A.1 aminoacylation ribozyme variant]	1.44

For every item in the list below, what is its measured self-aminoacylation?
1. CCACACUUUGAGCAAUCGGUC [Fam1B.1 aminoacylation ribozyme variant]
2. ACGUUUGCUAAUAGUCGAAAG [Fam3.1 aminoacylation ribozyme variant]
3. CCACACUUCAAGGAAUCGGUG [Fam1B.1 aminoacylation ribozyme variant]

[0.83, 5.96, 52.1]

Give self-aminoacylation for all sequences that follow.
1. CCACACUUCAAGCUAUCGGCC [Fam1B.1 aminoacylation ribozyme variant]
2. AUUCACUUAGGACAUCGGGUG [Fam2.2 aminoacylation ribozyme variant]

[0.862, 14.1]

Answer for every listed entry: what is its self-aminoacylation? The entries follow.
1. CCACACUUCAAGCGAUCGGUU [Fam1B.1 aminoacylation ribozyme variant]
2. AUUACCCUGGUCAUAGAGUGA [Fam2.1 aminoacylation ribozyme variant]
3. CCACACUUCAGGCAAUCGUUC [Fam1B.1 aminoacylation ribozyme variant]
4. CAGUUUGCUAAUAGUCACAAG [Fam3.1 aminoacylation ribozyme variant]
5. CUACUUAAAACAAUCGGUCUA [Fam1A.1 aminoacylation ribozyme variant]

[3.6, 54.8, 0.772, 2.59, 0.81]
